# Test system: mushroom tyrosinase
# assay_details: Mushroom Tyrosinase Assay
# Format: biochemical
# assay_conditions: 100 uM; slope of 475-nm absorbency vs. untreated ethanol control, L-DOPA substrate
measured_attribute: tyrosinase activity, % of ethanol control

[[record]]
molecule = "CNC(=O)/C=C\\c1ccc(O)cc1O [Resorcinol Amide 1]"
system_tested = "mushroom tyrosinase"
observed = "53.4 % of Control"

[[record]]
molecule = "COCCNC(=O)/C=C\\c1ccc(O)cc1O [Resorcinol Amide 2]"
system_tested = "mushroom tyrosinase"
observed = "57.9 % of Control"

[[record]]
molecule = "O=c1ccc2ccc(O)cc2o1 [7-Hydroxy Coumarin, 7-hydroxy coumarin]"
system_tested = "mushroom tyrosinase"
observed = "117 % of Control"

[[record]]
molecule = "CCc1ccc(O)cc1O [4-Ethyl Resorcinol]"
system_tested = "mushroom tyrosinase"
observed = "20.7 % of Control"


====

# System: mushroom tyrosinase
# assay_details: Mushroom Tyrosinase Assay
# Format: biochemical
# assay_conditions: 0.1 uM; slope of 475-nm absorbency vs. untreated ethanol control, L-DOPA substrate
# Procedure: Mushroom tyrosinase inhibition is indicative of reduction in melanin synthesis, thereby showing skin lightening effect. […] Absorbency is read at 475-nm over the following time points: 0, 2, 4, and 6.5 minutes. The data is plotted as 475-nm absorbency vs. time (minutes) and the slope of the line is calculated (ΔAbs 475 nm/min). Values are expressed as the percentage of the respective untreated ethanol control reaction. […]
Below, each of the molecules is paired with its reported tyrosinase activity, % of ethanol control value.
measured_attribute: tyrosinase activity, % of ethanol control

[[record]]
molecule = "CNC(=O)/C=C\\c1ccc(O)cc1O [Resorcinol Amide 1]"
observed = "75.1 % of Control"

[[record]]
molecule = "COCCNC(=O)/C=C\\c1ccc(O)cc1O [Resorcinol Amide 2]"
observed = "84.2 % of Control"

[[record]]
molecule = "O=c1ccc2ccc(O)cc2o1 [7-Hydroxy Coumarin, 7-hydroxy coumarin]"
observed = "104 % of Control"

[[record]]
molecule = "CCc1ccc(O)cc1O"
observed = "72.7 % of Control"


====

Below, each of the compounds is paired with its reported tyrosinase activity, % of ethanol control value.
# System: mushroom tyrosinase
# assay_details: Mushroom Tyrosinase Assay
# Assay type: biochemical
# assay_conditions: 1 uM; slope of 475-nm absorbency vs. untreated ethanol control, L-DOPA substrate
measured_attribute: tyrosinase activity, % of ethanol control

[[record]]
compound = "COCCNC(=O)/C=C\\c1ccc(O)cc1O [Resorcinol Amide 2]"
observed = "59.5 % of Control"

[[record]]
compound = "CNC(=O)/C=C\\c1ccc(O)cc1O [Resorcinol Amide 1]"
observed = "51.0 % of Control"

[[record]]
compound = "O=c1ccc2ccc(O)cc2o1 [7-Hydroxy Coumarin, 7-hydroxy coumarin]"
observed = "100 % of Control"

[[record]]
compound = "CCc1ccc(O)cc1O"
observed = "46.3 % of Control"

